- System: Rattus norvegicus
- ASSAY NOTES: Base line of mean aortic blood pressure in the conscious Renal hypertensive rat was determined after oral administration of 30 mg/kg
- Assay type: functional, Artery
RECORDED ENDPOINT: Mean aortic blood pressure (mmHg)
Reply with just the number (in mmHg).

Record excerpt, results attached:
MOLECULE | SYSTEM TESTED | Mean aortic blood pressure / mmHg
CCCCCCCCCC(=O)N[C@@H](Cc1ccccc1)C(=O)CCC(=O)N1CCCC1C(=O)O (stereo partly specified) | Rattus norvegicus | 197
C[C@H](CC(=O)[C@@H](Cc1ccccc1)NC(=O)c1ccccc1)C(=O)N1CCC[C@H]1C(=O)O | Rattus norvegicus | 188
CCCCCCCC(=O)N[C@@H](Cc1ccccc1)C(=O)CCC(=O)N1CCCC1C(=O)O (stereo partly specified) | Rattus norvegicus | 182
O=C(N[C@@H](Cc1ccccc1)C(=O)CCC(=O)N1CCC[C@H]1C(=O)O)c1ccccc1 | Rattus norvegicus | 190
CCCCCC(=O)N[C@@H](Cc1ccccc1)C(=O)CCC(=O)N1CCCC1C(=O)O (stereo partly specified) | Rattus norvegicus | 193

Next, consider the following molecule.
Challenge: Report Mean aortic blood pressure for CCCCOC(=O)NC(Cc1ccccc1)C(=O)CCC(=O)N1CCCC1C(=O)O (stereo unspecified)
Response given: 175

* * *

Each entry below carries its recorded I50.
- SYSTEM TESTED: Angiotensin-converting enzyme (Cavia porcellus)
- ASSAY NOTES: Inhibition of guinea pig serum Angiotensin I converting enzyme
Reply with just the number (in nM).

Record excerpt, results attached:
COMPOUND | SYSTEM TESTED | I50 / nM
CCCCOC(=O)NC(Cc1ccccc1)C(=O)CC(C)C(=O)N1CCCC1C(=O)O (stereo not given) | Angiotensin-converting enzyme (Cavia porcellus) | 29
CCCCCCCCCC(=O)N[C@@H](Cc1ccccc1)C(=O)CCC(=O)N1CCCC1C(=O)O (stereo not given in full) | Angiotensin-converting enzyme (Cavia porcellus) | 6500
CCCCOC(=O)NC(Cc1ccccc1)C(=O)CCC(=O)N1CCCC1C(=O)O (stereo not given) | Angiotensin-converting enzyme (Cavia porcellus) | 210

Challenge: Report I50 for CCCCCC(=O)N[C@@H](Cc1ccccc1)C(=O)CCC(=O)N1CCCC1C(=O)O (stereo not given in full)
Response given: 47

Challenge: Report I50 for CCCCCCCC(=O)N[C@@H](Cc1ccccc1)C(=O)CCC(=O)N1CCCC1C(=O)O (stereo not given in full)
Response given: 650

Values were extracted from ChEMBL document CHEMBL1122140.
